- Tested on: CYP1A1 versus CYP1B1
- experiment: Selectivity index, ratio of IC50 for inhibition of recombinant human CYP1A1 to IC50 for inhibition of recombinant human CYP1B1
- measurement.conditions: recombinant human CYP1A1 and recombinant human CYP1B1
Strictly below 10 in selectivity ratio: Satisfied. Otherwise: Not satisfied.

structure.as.smiles: Clc1cc(Cl)cc(Nc2nc(-c3nc(-c4cccnc4)cs3)cs2)c1
label.value: Not satisfied

structure.as.smiles: CCc1sc(-c2csc(Nc3ccc(N4CCOCC4)cc3)n2)nc1-c1ccncc1
label.value: Satisfied

structure.as.smiles: c1csc(-c2csc(Nc3ccc4c(c3)OCO4)n2)n1
label.value: Not satisfied

structure.as.smiles: Clc1cc(Cl)cc(Nc2nc(-c3nc(-c4ccncc4)cs3)cs2)c1
label.value: Not satisfied

structure.as.smiles: c1ccc(-c2csc(-c3csc(Nc4ccc(N5CCOCC5)cc4)n3)n2)cc1
label.value: Not satisfied

structure.as.smiles: c1cncc(-c2csc(-c3csc(Nc4ccc(N5CCOCC5)cc4)n3)n2)c1
label.value: Satisfied

structure.as.smiles: c1cn(Cc2ccc(Nc3nc(-c4nccs4)cs3)cc2)cn1
label.value: Not satisfied

structure.as.smiles: COc1cc(Nc2nc(-c3nc(-c4ccccc4)c(C)s3)cs2)cc(OC)c1
label.value: Satisfied

structure.as.smiles: c1csc(-c2csc(Nc3ccc(N4CCOCC4)cc3)n2)n1
label.value: Not satisfied

structure.as.smiles: Cc1sc(-c2csc(Nc3ccc(N4CCOCC4)cc3)n2)nc1-c1ccncc1
label.value: Satisfied
